Target: PRMT5/MEP50 complex (Homo sapiens, UniProt O14744)
Sequence (O14744 whole entry): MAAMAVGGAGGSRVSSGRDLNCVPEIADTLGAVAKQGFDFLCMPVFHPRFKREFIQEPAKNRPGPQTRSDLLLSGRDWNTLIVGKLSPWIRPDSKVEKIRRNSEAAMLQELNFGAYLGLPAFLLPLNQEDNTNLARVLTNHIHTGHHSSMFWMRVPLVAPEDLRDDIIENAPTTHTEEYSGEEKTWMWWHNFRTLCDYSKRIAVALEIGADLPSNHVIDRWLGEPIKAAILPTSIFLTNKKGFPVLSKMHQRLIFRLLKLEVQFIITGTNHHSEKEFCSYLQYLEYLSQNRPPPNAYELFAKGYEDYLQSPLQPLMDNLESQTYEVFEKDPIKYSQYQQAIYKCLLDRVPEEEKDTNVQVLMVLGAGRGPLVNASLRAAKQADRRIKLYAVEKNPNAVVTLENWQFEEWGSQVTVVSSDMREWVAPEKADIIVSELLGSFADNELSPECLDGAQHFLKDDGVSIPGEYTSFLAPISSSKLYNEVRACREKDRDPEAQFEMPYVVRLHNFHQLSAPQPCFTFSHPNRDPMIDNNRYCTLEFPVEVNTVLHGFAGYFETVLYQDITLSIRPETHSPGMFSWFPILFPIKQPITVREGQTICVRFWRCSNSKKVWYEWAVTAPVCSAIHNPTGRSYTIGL
Sequence (Q9BQA1 whole entry, further chain): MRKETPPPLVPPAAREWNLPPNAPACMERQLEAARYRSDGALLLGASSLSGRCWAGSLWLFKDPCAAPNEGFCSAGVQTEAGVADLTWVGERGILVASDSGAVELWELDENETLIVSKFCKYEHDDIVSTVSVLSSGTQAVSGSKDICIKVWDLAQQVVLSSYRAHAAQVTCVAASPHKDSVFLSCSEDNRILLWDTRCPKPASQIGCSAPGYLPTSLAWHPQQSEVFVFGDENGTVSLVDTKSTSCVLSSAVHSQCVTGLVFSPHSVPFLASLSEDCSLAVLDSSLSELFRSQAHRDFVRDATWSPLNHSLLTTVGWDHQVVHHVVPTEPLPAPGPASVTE
Assay: Binding affinity to PRMT5/MEP50 (unknown origin) assessed as dissociation constant by FITC- Competitive binding assay
Type: protein-complex assay
Square brackets hold non-standard residues; d marks the D form. Peptide text beside a SMILES is read from it. * marks the point of attachment. FITC = O=C1OC2(c3ccc(O)cc3Oc3cc(O)ccc32)c2ccc(NC(=S)*)cc21; Phe(4-NO2) = N[C@@H](Cc1ccc([N+](=O)[O-])cc1)C(=O)O; Bip = N[C@@H](Cc1ccc(-c2ccccc2)cc1)C(=O)O; Phe(4-Cl) = N[C@@H](Cc1ccc(Cl)cc1)C(=O)O; Gla = N[C@@H](CC(C(=O)O)C(=O)O)C(=O)O
Listing of recorded Kd by entry.
Hi! Could you send only the number? It should be in nM, unit omitted.

What does the data say about its Kd? Entry: CC(=O)N[C@H](C(=O)N1CCC[C@H]1C(=O)NCC(=O)N[C@@H](CCC(N)=O)C(=O)N[C@@H](Cc1ccc(-c2ccccc2)cc1)C(=O)N[C@@H](CC(=O)O)C(=O)N[C@@H](CC(=O)O)C(=O)N[C@@H](C)C(=O)N[C@@H](CC(=O)O)C(=O)N[C@@H](CCCCNC(=S)Nc1ccc2c(c1)C(=O)OC21c2ccc(O)cc2Oc2cc(O)ccc21)C(N)=O)C(C)C (Ac-VPGQ[Bip]DDADK(FITC)-NH2)
447

What does the data say about its Kd? Entry: CC(=O)N[C@H](C(=O)N1CCC[C@H]1C(=O)NCC(=O)N[C@@H](CCC(N)=O)C(=O)N[C@@H](Cc1ccc([N+](=O)[O-])cc1)C(=O)N[C@@H](CC(=O)O)C(=O)N[C@@H](CC(=O)O)C(=O)N[C@@H](C)C(=O)N[C@@H](CC(=O)O)C(=O)N[C@@H](CCCCNC(=S)Nc1ccc2c(c1)C(=O)OC21c2ccc(O)cc2Oc2cc(O)ccc21)C(N)=O)C(C)C (Ac-VPGQ[Phe(4-NO2)]DDADK(FITC)-NH2)
232

What does the data say about its Kd? Entry: CC(=O)N[C@H](C(=O)N1CCC[C@H]1C(=O)NCC(=O)N[C@@H](CCC(N)=O)C(=O)N[C@@H](Cc1ccc(Cl)cc1)C(=O)N[C@@H](CC(=O)O)C(=O)N[C@@H](CC(=O)O)C(=O)N[C@@H](C)C(=O)N[C@@H](CC(=O)O)C(=O)N[C@@H](CCCCNC(=S)Nc1ccc2c(c1)C(=O)OC21c2ccc(O)cc2Oc2cc(O)ccc21)C(N)=O)C(C)C (Ac-VPGQ[Phe(4-Cl)]DDADK(FITC)-NH2)
250

What does the data say about its Kd? Entry: `CC(C)[C@H](NC(=O)[C@H](CCCNC(=N)N)NC(=O)[C@H](CO)NC(=O)COCCOCCNC(=S)Nc1ccc2c(c1)C(=O)OC21c2ccc(O)cc2Oc2cc(O)ccc21)C(=O)N[C@H](C(=O)N1CCC[C@H]1C(=O)N[C@H]1CCCC[C@@H](C(=O)N[C@@H](CC(=O)O)C(=O)N[C@@H](C)C(=O)N[C@@H](CC(=O)O)C(N)=O)NC(=O)[C@H](Cc2ccccc2)NC(=O)[C@H](CCC(N)=O)NC1=O)C(C)C`
1290

Turning now to a further record.
What does the data say about its Kd? Entry: CC(=O)N[C@H](C(=O)N1CCC[C@H]1C(=O)NCC(=O)N[C@@H](CCC(N)=O)C(=O)N[C@@H](Cc1ccc(Cl)cc1)C(=O)N[C@@H](CC(=O)O)C(=O)N[C@@H](CC(=O)O)C(=O)N[C@@H](C)C(=O)N[C@@H](CC(C(=O)O)C(=O)O)C(=O)N[C@@H](CCCCNC(=S)Nc1ccc2c(c1)C(=O)OC21c2ccc(O)cc2Oc2cc(O)ccc21)C(N)=O)C(C)C (Ac-VPGQ[Phe(4-Cl)]DDA[Gla]K(FITC)-NH2)
144
